EXPERIMENT_SUMMARY: in vitro
PARTICULARS: human, Caco-2, pH 7.4
MEASUREMENT_KIND: recovery at 60 min, 10 μM (%)

Nc1ncn([C@H]2C[C@H](O)[C@@H](CO)O2)c(=O)n1 = 91
Nc1ccn([C@@H]2O[C@H](CO)[C@@H](O)C2(F)F)c(=O)n1 = 111

// data source = paper PMC4489529
